Please respond with reported Elimination rate for every item in the list.
ASSAY TEXT: Individual serum elimination rate and half-life (linear regression per employee)
MEASUREMENT CONTEXT: individual estimate, subject 6, 4 samples
Numbers only, in yearly.

[
  {
    "MOLECULE": "O=S(=O)(O)C(F)(F)C(F)(F)C(F)(F)C(F)(F)C(F)(F)C(F)(F)C(F)(F)C(F)(F)F",
    "NUMERIC READOUT": 0.04
  },
  {
    "MOLECULE": "O=C(O)C(F)(F)C(F)(F)C(F)(F)C(F)(F)C(F)(F)F",
    "NUMERIC READOUT": "−1.6"
  },
  {
    "MOLECULE": "O=S(=O)(O)C(F)(F)C(F)(F)C(F)(F)C(F)(F)F",
    "NUMERIC READOUT": 2.9
  },
  {
    "MOLECULE": "O=S(=O)(O)C(F)(F)C(F)(F)C(F)(F)C(F)(F)C(F)(F)F",
    "NUMERIC READOUT": 0.9
  },
  {
    "MOLECULE": "O=S(=O)(O)C(F)(F)C(F)(F)C(F)(F)C(F)(F)C(F)(F)C(F)(F)C(F)(F)F",
    "NUMERIC READOUT": 0.1
  },
  {
    "MOLECULE": "O=S(=O)(O)C(F)(C(F)(F)F)C(F)(F)C(F)(F)C(F)(F)C(F)(F)C(F)(F)C(F)(F)F (stereo not drawn) [1m-PFOS, perfluoro-1-methylheptanesulfonate]",
    "NUMERIC READOUT": "−0.1"
  },
  {
    "MOLECULE": "O=C(O)C(F)(F)C(F)(F)C(F)(F)C(F)(F)C(F)(F)C(F)(F)C(F)(F)F",
    "NUMERIC READOUT": 0.2
  },
  {
    "MOLECULE": "O=S(=O)(O)C(F)(F)C(F)(F)C(F)(F)C(F)(F)C(F)(F)C(F)(F)F",
    "NUMERIC READOUT": "−0.1"
  }
]

// below: Elimination rate requested for another molecule
In: Looking for the measured Elimination rate of "O=C(O)C(F)(F)C(F)(F)C(F)(F)C(F)(F)C(F)(F)C(F)(F)F" , can you help?
Out: 4.1

====

What Serum PFAS level, Max was measured for each of the following?
ASSAY TEXT: PFAS levels in serum samples of airport employees (LC/MS/MS)
MEASUREMENT CONTEXT: 2nd sampling (October 2018), count 17
Give bare numbers.

Required: Serum PFAS level, Max, one value per compound below.
1. O=C(O)C(F)(F)C(F)(F)C(F)(F)C(F)(F)C(F)(F)C(F)(F)F
2. O=S(=O)(O)C(F)(F)C(F)(F)C(F)(F)C(F)(F)C(F)(F)C(F)(F)F
3. O=S(=O)(O)C(F)(C(F)(F)F)C(F)(F)C(F)(F)C(F)(F)C(F)(F)C(F)(F)C(F)(F)F (stereo not drawn) [1m-PFOS, perfluoro-1-methylheptanesulfonate]
4. O=S(=O)(O)C(F)(F)C(F)(F)C(F)(F)C(F)(F)F

Out:
[2.0, 363, 4.0, 0.70]

====

For each record, write down the corresponding Specific gravity adjusted urinary level, Max.
ASSAY TEXT: PFAS levels in urine samples of airport employees, specific-gravity adjusted (LC/MS/MS)
Format: in vivo, human
MEASUREMENT CONTEXT: 5th sampling (January 2019), count 12
Reply with a number, then the unit it belongs to.

[
  {
    "MOLECULE": "O=S(=O)(O)C(F)(F)C(F)(F)C(F)(F)C(F)(F)C(F)(F)C(F)(F)C(F)(F)C(F)(F)F [L-PFOS, linear perfluorooctane sulfonic acid]",
    "RESULT": "0.04 ng/mL"
  },
  {
    "MOLECULE": "O=S(=O)(O)C(F)(F)C(F)(F)C(F)(F)C(F)(F)C(F)(F)F [PFPeS, perfluoropentane sulfonic acid]",
    "RESULT": "0.09 ng/mL"
  },
  {
    "MOLECULE": "O=C(O)C(F)(F)C(F)(F)C(F)(F)C(F)(F)C(F)(F)C(F)(F)F [PFHpA, perfluoroheptanoic acid]",
    "RESULT": "0.06 ng/mL"
  },
  {
    "MOLECULE": "O=C(O)C(F)(F)C(F)(F)C(F)(F)C(F)(F)C(F)(F)C(F)(F)C(F)(F)F [PFOA, perfluorooctanoic acid]",
    "RESULT": "0.07 ng/mL"
  }
]

Now look at this one.
In: Need Specific gravity adjusted urinary level, Max of O=S(=O)(O)C(F)(F)C(F)(F)C(F)(F)C(F)(F)C(F)(F)C(F)(F)F [PFHxS, perfluorohexane sulfonic acid] , thanks.
Out: 0.31 ng/mL
